B1: glmS ribozyme (parent)
chain: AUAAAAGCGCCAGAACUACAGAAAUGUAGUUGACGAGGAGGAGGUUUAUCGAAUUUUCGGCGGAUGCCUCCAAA

Variants of: B1
testDescription: self-cleavage kobs at 640 uM GlcN6P; higher = faster cleavage; RNA array
runConditions: with glucosamine-6-phosphate
Fewer inactive variants are shown than the library holds.
assayEndpoint: self-cleavage kobs at 640 uM GlcN6P (s⁻¹)
Could you give me the number in s⁻¹? Just the number is fine.

# count of solved cases: 2
inputSequence	numericValue
AUAAAUGCGCCAGAACUACAGAAAUGUAGUUGACGCGUAGGAGGUUUAUCGAAUUCUCGGCGGAUGGGUCCAAA [A6U A36C G38U U56C C67G C68G]	0.000412
AUAAAAGCGUCAGAACUACAGAAAUGUAGUUGACGAGGAGGAGGUUUAUGGAAUUUUCGGCGGAUGCUUCAAAA [C10U C50G C68U C71A]	9.29e-05

So, AUAAAAGCGCCAGAACUACAGAAAUGUAGUUGACGAGGAGGAGGUUUAUCGGGUUUUCGGCGGAUGCCUCCAAA [A52G A53G] ? Its self-cleavage kobs at 640 uM GlcN6P was 0.000264
